Quick reference for normalized growth among some molecules
assay: chemical genetic growth profiling, strain panel (AID 1159580);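 also: tested at 20 µM; growth read once vehicle control cultures reached saturation at 30 °C; 1 = growth at the plate median or of vehicle wells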; details: S. cerevisiae deletion strains, growth OD, locus YOR290C, strain snf2, stronger effect = lower value
Out of some 5,500 compounds screened, about 2,000 (36%) were called active. About 18% were inconclusive and are not listed. Some of the results follow.
The answer should be a number; do not append a unit.

As a guide, the following entries are already answered.
# molecule, reported_measurement
measured = [
    ("CCCCC1C(=O)N(c2ccccc2)N(c2ccccc2)C1=O", 1.02),
    ("COc1c(O)cc2c(-c3ccccc3)cc(=O)oc2c1OC", 0.967),
    ("O=c1[nH]c2cc(Cl)c(Cl)cc2[nH]c1=O", 0.971),
    ("CN1CCN2c3ccccc3Cc3ccccc3C2C1 (configuration not stated)", 0.928),
    ("NCCc1ccc(O)cc1", 1),
]

*Q* State, in one line, measured normalized growth of CCCCCCc1ccc(O)cc1O
*A* 0.819

*Q* State, in one line, measured normalized growth of Cc1cc2cc3c(C)cc(=O)oc3c(C)c2o1
*A* 0.949

*Q* State, in one line, measured normalized growth of C=CCc1ccccc1OCC(O)CNC(C)C (configuration not stated)
*A* 0.923

*Q* State, in one line, measured normalized growth of CC(=O)Oc1cc(-c2coc3cc(OC(C)=O)c(OC(C)=O)c(OC(C)=O)c3c2=O)cc(OC(C)=O)c1OC(C)=O
*A* 0.322

*Q* State, in one line, measured normalized growth of Nc1ccc(C(=O)Oc2ccccc2)c(O)c1
*A* 0.885

*Q* State, in one line, measured normalized growth of CC(=O)Nc1ccc(OC(=O)c2ccccc2O)cc1
*A* 0.857

*Q* State, in one line, measured normalized growth of CC(C)(Oc1ccc(Cl)cc1)C(=O)O
*A* 1.03

====

test: chemical genetic growth profiling, strain panel (AID 1159580); details: S. cerevisiae deletion strains, growth OD, locus YNL197C, strain WHI3, stronger effect = lower value
About 2,000 (36%) of roughly 5,500 compounds were called active. Another 18% or so got no clear call; they are omitted. This is one part of the list.
observation_type: normalized growth
The answer should be a number; do not append a unit.

As a guide, the following entries are already answered.
# compound, normalized growth
rows = [
    ("CCCCOc1cc(CC2CNC(=O)N2)ccc1OC (configuration not stated)", 1.03),
    ("O=C1CCc2cc(OCCCCc3nnnn3C3CCCCC3)ccc2N1", 1.01),
    ("CC(=O)C(C)=O", 1.03),
    ("C[N+]1(CCCCC[N+]2(C)CCCC2)CCCC1", 0.982),
    ("Cc1nc2c(OCc3ccccc3)cccn2c1CC#N", 1),
]

*Q* State, in one line, measured normalized growth of CN1CCc2ccccc2Cc2[nH]c3ccccc3c2CC1
*A* 1.01

*Q* State, in one line, measured normalized growth of CC(=O)[C@H]1CCC2C3CC=C4C[C@@H](OS(=O)(=O)O)CC[C@]4(C)C3CC[C@@]21C (some centres not stated)
*A* 1

====

Quick reference for normalized growth among some molecules
assay: chemical genetic growth profiling, strain panel (AID 1159580); details: S. cerevisiae deletion strains, growth OD, locus YLR418C, strain cdc73, stronger effect = lower value
Out of some 5,500 compounds screened, about 2,000 (36%) were called active. Another 18% or so got no clear call; they are omitted. The list shows a part of the results.
The answer should be a number; do not append a unit.

As a guide, the following entries are already answered.
# molecule, reported_measurement
measured = [
    ("COc1cc2cc[n+]3cc4c(OC)c(OC)ccc4cc3c2cc1OC", 1),
    ("CC(=O)O[C@@H]1CC2C(C)(C)[C@H](O)C[C@H](O)[C@]2(C)C2CC[C@@]3(C)[C@H](c4ccoc4)OC(=O)[C@H]4O[C@]43[C@@]21C (some centres undefined)", 1.03),
    ("CC(=O)O[C@@H]1CC2C(C)(C)C(=O)CC[C@]2(C)C2CC[C@@]3(C)[C@H](c4ccoc4)OC(=O)C4OC43[C@@]21C (some centres undefined)", 0.979),
]

Let us move to another entry and its normalized growth.
*Q* State, in one line, measured normalized growth of COc1c2c(cc3c1OCO3)CC[N+](C)=C2
*A* 1.03

====

test: chemical genetic growth profiling, strain panel (AID 1159580);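 also: tested at 20 µM; growth read once vehicle control cultures reached saturation at 30 °C; 1 = growth at the plate median or of vehicle wells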; conditions: S. cerevisiae deletion strains, growth OD, locus YGL240W, strain doc1, stronger effect = lower value
The campaign covered roughly 5,500 compounds. About 2,000 (36%) were called active. Inconclusive results (about 18%) are left out. The list shows a part of the results.
// assign yes if normalized growth falls strictly below 1, else no (ties count as no)

Some solved entries appear below for comparison.
# structure_smiles, category_label
measured = [
    ("NS(=O)(=O)c1cc2c(cc1C(F)(F)F)NCNS2(=O)=O", "yes"),
    ("O=C1c2c(O)ccc(O)c2C(=O)c2c(NCCNCCO)ccc(NCCNCCO)c21", "yes"),
    ("O=c1[nH]c2cc(Cl)c(Cl)cc2[nH]c1=O", "yes"),
]

Turning now to a further record.
*Q* Would you kindly verify if normalized growth of O=C(O)c1nc2cc(Cl)c(Cl)cc2[nH]c1=O is strictly less than 1?
*A* no

====

Quick reference for normalized growth among some compounds
experiment: chemical genetic growth profiling, strain panel (AID 1159580);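 also: tested at 20 µM; growth read once vehicle control cultures reached saturation at 30 °C; 1 = growth at the plate median or of vehicle wells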; conditions: S. cerevisiae deletion strains, growth OD, locus YLR058C, strain SHM2 (second series), stronger effect = lower value
Hit rate of the full screen: of about 5,500 compounds, about 2,000 (36%) were called active. About 18% were inconclusive and are not listed. The list shows a part of the results.
The answer should be a number; do not append a unit.

As a guide, the following entries are already answered.
# compound, reported_measurement
rows = [
    ("COC(=O)c1cn(Cc2ccc(C(F)(F)F)cc2)cc(F)c1=O", 0.996),
    ("O=C1NC(c2ccccc2Cl)Nc2ccccc21 (stereo not given)", 1),
    ("COC(=O)C1=C(Nc2ccc(Cl)cc2)CSC1", 0.969),
    ("Cc1ccc(COc2ccc(C)nc2[N+](=O)[O-])cc1", 0.954),
    ("CC(C)(C)OC(=O)NC1CCN(C(=O)c2ccc(Cl)cc2Cl)CC1", 1),
]

*Q* State, in one line, measured normalized growth of COC(=O)c1ccc(Cl)cc1N(Cc1ccccc1)S(C)(=O)=O
*A* 1.01

*Q* State, in one line, measured normalized growth of C=CCn1c(Sc2ncc([N+](=O)[O-])s2)n[nH]c1=O
*A* 0.962

*Q* State, in one line, measured normalized growth of CN1CNc2c(c(=O)n(C)c(=O)n2C)C1
*A* 1

*Q* State, in one line, measured normalized growth of O=C(Nc1ccccc1SCc1cccc(C(F)(F)F)c1)c1c(F)cccc1Cl
*A* 1.01

*Q* State, in one line, measured normalized growth of FC(F)(F)c1ccc(-c2nc(-c3ccc4c(c3)OCCCO4)cs2)cc1
*A* 0.998

*Q* State, in one line, measured normalized growth of CCCCCCCCCCc1ccc(-c2ccccc2)cc1
*A* 1.01

*Q* State, in one line, measured normalized growth of CCOC(=O)c1ccc2oc3ccc(O)cc3c(=O)c2c1
*A* 0.988

*Q* State, in one line, measured normalized growth of Clc1ccc(-c2csc(-c3ccno3)n2)s1
*A* 0.932

*Q* State, in one line, measured normalized growth of CCOC(=O)c1c(SC)[nH]c2c(C(F)(F)F)cccc2c1=O
*A* 1

====

experiment: chemical genetic growth profiling, strain panel (AID 1159580);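 also: tested at 20 µM; growth read once vehicle control cultures reached saturation at 30 °C; 1 = growth at the plate median or of vehicle wells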; conditions: S. cerevisiae deletion strains, growth OD, locus YJL129C, strain trk1, stronger effect = lower value
Screen size: about 5,500 compounds; about 2,000 (36%) were called active. Another 18% or so got no clear call; they are omitted. The list shows a part of the results.
observation_type: normalized growth
The answer should be a number; do not append a unit.

# compound, reported_measurement
records = [
    ("CC(=O)O[C@H]1C[C@H](O[C@H]2[C@@H](O)C[C@H](O[C@H]3[C@@H](O)C[C@H](O[C@H]4CC[C@@]5(C)C(CCC6C5C[C@@H](O)[C@]5(C)[C@@H](C7=CC(=O)OC7)CC[C@]65O)C4)O[C@@H]3C)O[C@@H]2C)O[C@H](C)[C@H]1O[C@@H]1O[C@H](CO)[C@@H](O)[C@H](O)[C@H]1O (some centres undefined)", 0.998),
    ("CC1=C2C(=CO[C@H](C)[C@H]2C)C(=O)C(C(=O)O)=C1O", 0.927),
    ("C=C1C(N)CC2CC1C2(C)C (centres undefined)", 1.01),
]

*Q* State, in one line, measured normalized growth of O=c1[nH]c2cc(Cl)c(Cl)cc2[nH]c1=O
*A* 0.95

*Q* State, in one line, measured normalized growth of O=C(O)c1nc2cc(Cl)c(Cl)cc2[nH]c1=O
*A* 1.01

*Q* State, in one line, measured normalized growth of CC1(C)O[C@@H]2CC3C4C[C@H](F)C5=CC(=O)C=C[C@]5(C)[C@@]4(F)[C@@H](O)C[C@]3(C)[C@]2(C(=O)CO)O1 (some centres undefined)
*A* 1.02

*Q* State, in one line, measured normalized growth of CCCCCCCCCCCCCCCC[n+]1ccccc1
*A* 0.0768

*Q* State, in one line, measured normalized growth of C/C(=C\C(=O)OCCCCCCCCC(=O)O)C[C@@H]1OC[C@H](C[C@@H]2O[C@H]2[C@@H](C)[C@H](C)O)[C@@H](O)[C@H]1O
*A* 0.993

*Q* State, in one line, measured normalized growth of FC(F)(F)C(Cl)Br (centres undefined)
*A* 1.06
